Provide the reported MIC of each item.
Test system: Bacillus
Assay: Antibacterial activity against Bacillus proteus after overnight incubation by […] method
Assay type: functional

For CN[C@@H]1[C@H](O[C@H]2[C@H](O[C@H]3[C@H](O)[C@@H](O)[C@H](N=C(N)N)[C@@H](O)[C@@H]3N=C(N)N)O[C@@H](C)[C@]2(O)C=O)O[C@@H](CO)[C@H](O)[C@H]1O [STREPTOMYCIN] on Bacillus, measured MIC was 16 µg/mL

The reported MIC value, Bacillus, for Cn1c(=O)n(CCOC(=O)CNC(=O)c2ccc(F)cc2)c(=O)c2ccccc21 reads 512 µg/mL

Form field MIC for item Cn1c(=O)n(CCOC(=O)CNC(=O)c2ccc(Cl)cc2)c(=O)c2ccccc21 on Bacillus: 256 µg/mL

Response field MIC (Bacillus) for item Cn1c(=O)n(CCOC(=O)CNC(=O)c2ccccc2)c(=O)c2ccccc21 : > 512 µg/mL

// assay Bacillus, entry Cn1c(=O)n(CCOC(=O)CNC(=O)c2ccco2)c(=O)c2ccccc21 , MIC value = 128 µg/mL

Summary line: Cn1c(=O)n(CCOC(=O)CNC(=O)c2ccccc2Cl)c(=O)c2ccccc21 , Bacillus, reported MIC = 128 µg/mL

# MIC measured on Bacillus for item Cn1c(=O)n(CCOC(=O)CNC(=O)c2cccc([N+](=O)[O-])c2)c(=O)c2ccccc21 = 128 µg/mL

Readout MIC for Cn1c(=O)n(CCOC(=O)CNC(=O)c2cccs2)c(=O)c2ccccc21 , test system Bacillus, was 64 µg/mL

Log: Bacillus, compound Cn1c(=O)n(CCOC(=O)CNC(=O)/C=C\c2ccccc2)c(=O)c2ccccc21 , MIC = 256 µg/mL

* * *

Test system: Candida
Test: Antifungal activity against Candida mycoderma after overnight incubation by […] method
Format: functional
Result type: MIC

Entry under test: OC(Cn1cncn1)(Cn1cncn1)c1ccc(F)cc1F . Its MIC was 8 µg/mL

Data point: Cn1c(=O)n(CCOC(=O)CNC(=O)c2cccc(F)c2)c(=O)c2ccccc21 ; MIC = 512 µg/mL

Lab book: MIC of Cn1c(=O)n(CCOC(=O)CNC(=O)c2ccccc2)c(=O)c2ccccc21 noted as > 512 µg/mL

Sample Cn1c(=O)n(CCOC(=O)CNC(=O)c2ccco2)c(=O)c2ccccc21 ; MIC observed: 64 µg/mL

Documented MIC of Cc1ccc(C(=O)NCC(=O)OCCn2c(=O)c3ccccc3n(C)c2=O)cc1 : 512 µg/mL

The compound Cn1c(=O)n(CCOC(=O)CNC(=O)c2cccs2)c(=O)c2ccccc21 showed MIC equal to 512 µg/mL

* * *

Test system: Staphylococcus aureus
Test: Antibacterial activity against Staphylococcus aureus ATCC 25923 after overnight incubation by […] method
Type: functional
Assignment: determine reported MIC for the given compounds.
All answers are understood in µg/mL, so give the number only.

Sample Cn1c(=O)n(CCOC(=O)CNC(=O)c2cccc(F)c2)c(=O)c2ccccc21 ; MIC observed: 128

Value of MIC reported for the compound Cc1ccccc1C(=O)NCC(=O)OCCn1c(=O)c2ccccc2n(C)c1=O is 512

The value of MIC measured for the compound Cc1ccc(C(=O)NCC(=O)OCCn2c(=O)c3ccccc3n(C)c2=O)cc1 turned out to be 512

Recorded result, COc1ccc(C(=O)NCC(=O)OCCn2c(=O)c3ccccc3n(C)c2=O)cc1 , MIC: 512

# compound Cn1c(=O)n(CCOC(=O)CNC(=O)c2ccccc2Cl)c(=O)c2ccccc21 ; its MIC = 512

// sample Cn1c(=O)n(CCOC(=O)CNC(=O)c2ccc([N+](=O)[O-])cc2)c(=O)c2ccccc21 , its MIC was 256

response.value for Cn1c(=O)n(CCOC(=O)CNC(=O)c2ccc(F)cc2)c(=O)c2ccccc21 (field: MIC) = 256

Per the records, this compound ( CN[C@@H]1[C@H](O[C@H]2[C@H](O[C@H]3[C@H](O)[C@@H](O)[C@H](N=C(N)N)[C@@H](O)[C@@H]3N=C(N)N)O[C@@H](C)[C@]2(O)C=O)O[C@@H](CO)[C@H](O)[C@H]1O ) has MIC equal to 32

Note to self: MIC recorded for Cn1c(=O)n(CCOC(=O)CNC(=O)c2cccc([N+](=O)[O-])c2)c(=O)c2ccccc21 was 128
